pIC50: −log10 of the molar value.
Consider compounds characterized by their pIC50 with Methionine aminopeptidase 1 (Saccharomyces cerevisiae S288c, UniProt Q01662).
Sequence (Q01662 whole entry): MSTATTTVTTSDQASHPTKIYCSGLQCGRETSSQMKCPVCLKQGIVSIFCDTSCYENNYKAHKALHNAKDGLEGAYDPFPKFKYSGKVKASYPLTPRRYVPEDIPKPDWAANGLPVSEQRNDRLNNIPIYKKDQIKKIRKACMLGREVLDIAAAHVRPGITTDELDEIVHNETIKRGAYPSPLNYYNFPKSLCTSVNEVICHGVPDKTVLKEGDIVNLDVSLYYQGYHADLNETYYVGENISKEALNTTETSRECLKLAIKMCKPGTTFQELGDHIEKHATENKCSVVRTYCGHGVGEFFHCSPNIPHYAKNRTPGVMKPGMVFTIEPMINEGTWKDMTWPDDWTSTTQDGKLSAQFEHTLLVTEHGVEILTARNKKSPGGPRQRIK

- MOL SMILES: "O=C(Nc1nccs1)c1cccc(C(=O)Nc2nccs2)n1"
  EXPERIMENTAL RESULT: "< 4.00"
- MOL SMILES: "CC(C)(C)OC(=O)Nc1ccc(C(=O)Nc2nccs2)nc1"
  EXPERIMENTAL RESULT: 4.20
- MOL SMILES: "O=C(Nc1nccs1)c1cc(Cl)ccn1"
  EXPERIMENTAL RESULT: "< 4.00"

Item under review: COc1ccnc(C(=O)Nc2nccs2)c1 . Reported pIC50?
< 4.00

What would you report for CCCCc1ccc(C(=O)Nc2nccs2)nc1 ?
< 4.00

Same thing, different compound: O=C(Nc1nccs1)c1cc([N+](=O)[O-])ccn1
< 4.00

And the next one, CC(C)=CCc1ccc(C(=O)Nc2nccs2)nc1 ?
< 4.00

Query Nc1ccc(C(=O)Nc2nccs2)nc1 next
5.61
